The following molecules are shown together with reported LPS % cell toxicity values.
test system: primary rat microglia; conditions: rat
Counter-ions that a name gives are not always drawn.

Molecule: Cc1nc(-c2ccc(OCC(C)C)c(C#N)c2)sc1C(=O)O [Febuxostat]
Output Unit: %
LPS % cell toxicity: 0

Molecule: CC(=O)OCC(=O)[C@@]1(OC(C)=O)[C@@H](C)C[C@H]2[C@@H]3C[C@H](F)C4=CC(=O)C=C[C@]4(C)[C@@]3(F)[C@@H](O)C[C@@]21C [Diflorasone diacetate, reference compound]
Output Unit: %
LPS % cell toxicity: 0

Molecule: CCCCC1C(=O)N(c2ccccc2)N(c2ccccc2)C1=O [Phenylbutazone]
Output Unit: %
LPS % cell toxicity: 0

Molecule: CCCNC(C)C(=O)Nc1ccccc1C (centres unmarked) [Prilocaine]
Output Unit: %
LPS % cell toxicity: 0

Molecule: NCCS(=O)(=O)O [2-Aminoethanesulfonic Acid]
Output Unit: %
LPS % cell toxicity: 0

Molecule: CC(CCc1ccc(O)cc1)NCCc1ccc(O)c(O)c1 (centres unmarked) [Dobutamine Hydrochloride]
Output Unit: %
LPS % cell toxicity: 0

Molecule: CN1CCN(CCCN2c3ccccc3Sc3ccc(Cl)cc32)CC1 [Prochlorperazine]
Output Unit: %
LPS % cell toxicity: 1

Molecule: O=c1[nH]c(=O)n([C@H]2C[C@H](O)[C@@H](CO)O2)cc1C(F)(F)F [Trifluridine]
Output Unit: %
LPS % cell toxicity: 1
